# Test system: MCF7 (ARE/MMP)
# TEST PARAMETERS: MMP bioassay cytotoxicity; dosing range all; log-logistic model
ASSAY READOUT: logIC10

{"COMPOUND": "CC1(C)C(O)C(C)(C)C1O (racemic) [r-TMCD]", "ASSAY READOUT": "logIC10", "EXPERIMENTAL RESULT": "no cytotoxicity"}
{"COMPOUND": "CC(C)(c1ccc(O)c(-c2ccccc2)c1)c1ccc(O)c(-c2ccccc2)c1 [BPPH, 2,2-Bis(2-hydroxy-5-biphenylyl)propane]", "ASSAY READOUT": "logIC10", "EXPERIMENTAL RESULT": -5.11}
{"COMPOUND": "Oc1ccc(Cc2ccc(O)cc2)cc1 [BPF, Bis(4-hydroxyphenyl)methane]", "ASSAY READOUT": "logIC10", "EXPERIMENTAL RESULT": -3.28}
{"COMPOUND": "O=S(=O)(c1ccc(O)cc1)c1ccc(O)cc1 [BPS, 4,4'-Sulfonyldiphenol]", "ASSAY READOUT": "logIC10", "EXPERIMENTAL RESULT": -2.92}
{"COMPOUND": "CC1(C)[C@H](O)C(C)(C)[C@H]1O [Trans TMCD]", "ASSAY READOUT": "logIC10", "EXPERIMENTAL RESULT": "no cytotoxicity"}

This collection of values is drawn from paper PMC12392461.
